Measured Kd, listed per entry.
biological target: T1, recombinant cynomolgus TREM2 ECD (cynomolgus); assay: SPR (Biacore)
T1 construct: extracellular domain; also called cyno TREM2
Quick note: give the figure in nM, leave out the unit.

// below: answered binders
Reference antibody #1 (antibody, V domains shown) VH: EVQLVQSGAEVKKPGESLKISCKGSGHSFTNYWIAWVRQMPGKGLEWMGIIYPGDSDTRYSPSFQGQVTISADKSISTAYLQWSSLKASDTAVYFCARQRTFYYDSSGYFDYWGQGTLVTVSS VL: DIQMTQSPSSVSASVGDRVTITCRASQGISNWLAWYQQKPGKAPKLLIYAASSLQVGVPLRFSGSGSGTDFTLTISSLQPEDFATYYCQQADSFPRNFGQGTKLEIK: 14
CL0020123-7 (antibody, V domains shown, Humanized variant of CL0020123 (hVH NGES/1 m, Vk graft); also called Clone CL0020123-7) VH: QVQLVQSGAEVKKPGASVKVSCKASGFSIEDFYIHWVRQAPGQGLEWMGWIDPENGESKYAPKFQGRVTITADTSTSTAYMELSSLRSEDTAVYYCHADHGNYGSTMDYWGQGTLVTVSS VL: DIQMTQSPSSLSASVGDRVTITCHASQHINVWLSWYQQKPGKAPKLLIYKASNLHTGVPSRFSGSGSGTDFTLTISSLQPEDFATYYCQQGQTYPRTFGQGTKVEIK: 9.4
CL0020188-7 (antibody, V domains shown, Humanized variant of CL0020188 (hVH NA/graft, hVL TG/graft); also called Clone CL0020188-7) VH: EVQLVESGGGLVQPGGSLRLSCAASGFTFTDFYMSWVRQAPGKGLEWVSVIRNKANAYTAGYNPSVKGRFTISRDNSKNTLYLQMNSLRAEDTAVYYCARLTYGFDYWGQGTLVTVSS VL: DIVMTQTPLSLPVTPGEPASISCQSSKSLLHSTGKTYLNWYLQKPGQSPQLLIYWMSTRASGVPDRFSGSGSGTDFTLKISRVEAEDVGVYYCQQFLEYPFTFGQGTKVEIK: 2.8
Reference antibody #2 (antibody, V domains shown) VH: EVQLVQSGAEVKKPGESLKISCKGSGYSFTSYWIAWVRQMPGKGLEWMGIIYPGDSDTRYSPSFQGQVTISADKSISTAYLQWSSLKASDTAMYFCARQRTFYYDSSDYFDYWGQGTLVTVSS VL: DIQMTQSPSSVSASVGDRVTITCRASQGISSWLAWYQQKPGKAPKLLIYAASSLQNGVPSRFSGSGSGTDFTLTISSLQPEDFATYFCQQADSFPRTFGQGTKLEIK: 9.2
CL0020188-4 (antibody, V domains shown, Humanized variant of CL0020188 (hVH NG/3 m, hVL TG/graft); also called Clone CL0020188-4) VH: EVQLVESGGGLVQPGGSLRLSCAGSGFTFTDFYMSWVRQAPGKGPEWLSVIRNKANGYTAGYNPSVKGRFTISRDNSKNTLYLQMNSLRAEDTAVYYCARLTYGFDYWGQGTLVTVSS VL: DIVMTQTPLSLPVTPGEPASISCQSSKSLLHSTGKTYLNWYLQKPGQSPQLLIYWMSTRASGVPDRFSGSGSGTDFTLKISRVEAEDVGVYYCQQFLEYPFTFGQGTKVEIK: 1.5

response.value for CL0020123-5 (antibody, V domains shown, Humanized variant of CL0020123 (hVH QGES/2 m, Vk graft); also called Clone CL0020123-5) VH: QVQLVQSGAEVKKPGASVKVSCKASGFSIEDFYIHWVRQAPGQGLEWMGWIDPEQGESKYAPKFQGRATITADTSTSTAYMELSSLRSEDTAVYYCHADHGNYGSTMDYWGQGTLVTVSS VL: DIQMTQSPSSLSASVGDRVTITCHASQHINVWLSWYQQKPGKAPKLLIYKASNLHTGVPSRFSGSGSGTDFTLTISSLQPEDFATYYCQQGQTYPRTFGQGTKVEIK (field: Kd) = 9.3

response.value for Reference antibody #3 (antibody, V domains shown) VH: QVQLVQSGAEVKKPGASVKVSCKASGYAFSSQWMNWVRQAPGQRLEWIGRIYPGGGDTNYAGKFQGRVTITADTSASTAYMELSSLRSEDTAVYYCARLLRNQPGESYAMDYWGQGTLVTVSS VL: DVVMTQSPDSLAVSLGERATINCRSSQSLVHSNRYTYLHWYQQKPGQSPKLLIYKVSNRFSGVPDRFSGSGSGTDFTLKISRVEAEDVGVYYCSQSTRVPYTFGQGTKLEIK (field: Kd) = 9.2

Where do the numbers come from? From patent US20220119522A1.
